Test system: A549
Test: Inhibition ratio against A-549 cancer cell growth at a concentration of 10e-7 mol/L
Type: functional, Homo sapiens
readout-type: Ratio
Enter a number only.

Please review the entries below; each comes with its answer.
O=C1c2ccccc2C(=Cc2ccc(F)cc2)c2ccccc21 | 18.5
COc1ccc(C=C2c3ccccc3C(=O)c3ccccc32)cc1 | 85.4

--- query ---
Incoming: # query: Ratio of entry "Cc1ccc(C=C2c3ccccc3C(=O)c3ccccc32)cc1"
Outgoing: 92.7

* * *

Test system: P388
Assay: Inhibition ratio against P-388 cancer cell growth at a concentration of 10e-5 mol/L
Assay type: functional, Mus musculus
Each record here notes measured Ratio.

Cc1ccccc1C=C1c2ccccc2C(=O)c2ccccc21 | 42.4

Pending molecule:
Incoming: Ratio lookup needed for "O=C1c2ccccc2C(=Cc2ccc(Cl)cc2)c2ccccc21" , thanks.
Outgoing: 36

* * *

Items are presented alongside their recorded Ratio.
Tested on: P388
Assay: Inhibition ratio against P-388 cancer cell growth at a concentration of 10e-5 mol/L
Format: functional, Mus musculus
Give the figure only, with no unit attached.

Here's what some known entries look like.
Cc1cccc(C=C2c3ccccc3C(=O)c3ccccc32)c1 | 7.2
COc1ccc(C=C2c3ccccc3C(=O)c3ccccc32)cc1 | 72.5
COc1ccccc1C=C1c2ccccc2C(=O)c2ccccc21 | 76.1
O=C1c2ccccc2C(=Cc2ccccc2Cl)c2ccccc21 | 23.7
COc1ccc(C=C2c3ccccc3C(=O)c3ccccc32)cc1OC | 80.2

Now consider a different compound.
Incoming: Fill blank: measured Ratio of the compound "O=C1c2ccccc2C(=Cc2ccc(F)cc2)c2ccccc21" is ____.
Outgoing: 31.4

* * *

System: A549
Assay: Inhibition ratio against A-549 cancer cell growth at a concentration of 10e-5 mol/L
Format: functional, Homo sapiens
Examples of compounds with documented Ratio follow.
Number, no unit, nothing else.

O=C1c2ccccc2C(=Cc2ccc(O)cc2)c2ccccc21 | 87
COc1ccc(C=C2c3ccccc3C(=O)c3ccccc32)cc1OC | 92.8

Now consider the entry below.
Incoming: Ratio lookup needed for "O=C1c2ccccc2C(=Cc2ccccc2Cl)c2ccccc21" , thanks.
Outgoing: 53

* * *

Test system: P388
Assay: Inhibition ratio against P-388 cancer cell growth at a concentration of 10e-5 mol/L
Type: functional, Mus musculus
readout-type: Ratio
Give the figure by itself; no unit, no explanation.

Before answering, review these 6 worked examples.
O=C1c2ccccc2C(=Cc2cccc([N+](=O)[O-])c2)c2ccccc21 | 55.8
O=C1c2ccccc2C(=Cc2ccc(O)cc2)c2ccccc21 | 72
O=C1c2ccccc2C(=Cc2ccccc2)c2ccccc21 | 56.2
O=C1c2ccccc2C(=Cc2ccccc2O)c2ccccc21 | 88.2
COc1cccc(C=C2c3ccccc3C(=O)c3ccccc32)c1 | 48.2
Cc1ccc(C=C2c3ccccc3C(=O)c3ccccc32)cc1 | 42.4

Incoming: What Ratio value was documented for this compound, "O=C1c2ccccc2C(=Cc2cccc(Cl)c2)c2ccccc21" ?
Outgoing: 39.4
